target: Hexose transporter 1 (Plasmodium falciparum); assay: ST_JUDE_LEISH: Cytotoxicity at 2uM final concentration against transgenic Leishmania Mexicana promastigotes LmPfHT that are glucose transport deficient and complemented with the Plasmodium falciparum hexose transporter. Activity is measured by DNA content using SYBR green in vitro; assay type: functional
Recorded inhibition for the following molecules
endpoint: inhibition (%)

[
  {
    "molecule": "N=C(N)NN=CC(=O)Nc1ccc(Cl)c(C(F)(F)F)c1",
    "recorded-measurement": 7.04
  },
  {
    "molecule": "CCCCN(CCCC)CCNC(=O)c1cccc(NC(=O)N2CCc3cc(SC)c(C(F)(F)F)cc32)c1",
    "recorded-measurement": 4.24
  },
  {
    "molecule": "CCOc1cc(C)ccc1C1CCN(CCCCNC(=O)c2cnc(-c3ccc(C(F)(F)F)cc3)[nH]2)CC1",
    "recorded-measurement": 2.12
  },
  {
    "molecule": "Cc1cc(=NN=Cc2ccc(Cl)cc2)c2cc(C(F)(F)F)ccc2[nH]1",
    "recorded-measurement": -4.87
  },
  {
    "molecule": "CCOc1ccc(Cc2c(C)nc3nc(N)nc(N)c3c2C)cc1",
    "recorded-measurement": 41.5
  },
  {
    "molecule": "Cc1ccccc1C1CCN(C2CCC(NC(=O)c3ccc(-c4cc(C(F)(F)F)nn4C)s3)CC2)CC1 (centres undefined)",
    "recorded-measurement": 9.92
  },
  {
    "molecule": "COc1cccc(CNc2noc(-c3c(-c4ccccc4)noc3C)n2)c1OC",
    "recorded-measurement": 3.83
  },
  {
    "molecule": "CC(=O)Nc1ccc2[nH]cc(C3CCN(CC4CCC(NC(=O)/C=C/c5ccc(Cl)c(Cl)c5)CC4)CC3)c2n1 (centres undefined)",
    "recorded-measurement": 0.9
  },
  {
    "molecule": "CC(C)C[C@@H](CNC[C@H](CC(C)C)NC(=O)OC(C)(C)C)NC(=O)OC(C)(C)C",
    "recorded-measurement": -2.4
  }
]

====

Catalogue of compounds with associated inhibition
target: Solute carrier family 2, facilitated glucose transporter member 1 (Homo sapiens) (UniProt P11166); assay: ST_JUDE_LEISH: Cytotoxicity at 2uM final concentration against transgenic Leishmania Mexicana promastigotes LmGLUT1 that are glucose transport deficient and complemented with the human glucose transporter GLUT1. Activity is measured by DNA content using SYBR green in vitro; assay type: functional
Sequence (P11166 whole entry): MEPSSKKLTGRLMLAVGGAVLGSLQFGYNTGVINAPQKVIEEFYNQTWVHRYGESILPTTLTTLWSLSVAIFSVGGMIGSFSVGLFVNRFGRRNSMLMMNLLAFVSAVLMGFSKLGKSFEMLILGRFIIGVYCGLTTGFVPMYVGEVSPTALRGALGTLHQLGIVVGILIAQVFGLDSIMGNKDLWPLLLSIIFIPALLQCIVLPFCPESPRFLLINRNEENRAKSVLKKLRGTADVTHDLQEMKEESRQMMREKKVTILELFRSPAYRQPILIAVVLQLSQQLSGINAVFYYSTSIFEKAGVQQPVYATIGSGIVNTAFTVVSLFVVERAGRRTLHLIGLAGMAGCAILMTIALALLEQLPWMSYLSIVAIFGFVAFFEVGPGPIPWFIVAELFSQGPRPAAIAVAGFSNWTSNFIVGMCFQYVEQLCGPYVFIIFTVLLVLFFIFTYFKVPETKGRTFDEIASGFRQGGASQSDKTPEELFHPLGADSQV

[
  {
    "compound": "CN1CCN(CCCN(Cc2csc(-c3ccc(CNCc4ccccc4)cc3)n2)S(=O)(=O)c2ccccc2Cl)CC1",
    "unit-spec": "%",
    "inhibition": 1.75
  },
  {
    "compound": "c1ccc(COc2ccc(Nc3ncnc4cnc(-c5ccc(CN6CCCCC6)o5)cc34)cc2)cc1",
    "unit-spec": "%",
    "inhibition": 1.44
  },
  {
    "compound": "COc1ccc2cc(-c3nc(-c4c(Cl)cccc4Cl)[nH]c3-c3ccnc(NCCCN4CCN(C)CC4)c3)ccc2c1",
    "unit-spec": "%",
    "inhibition": -1.11
  },
  {
    "compound": "O=C(Nc1ccccc1)N(Cc1cccc(-c2ccc(CNC3CCCC3)cc2)c1)C1CCN(Cc2ccccc2)CC1",
    "unit-spec": "%",
    "inhibition": 5.58
  },
  {
    "compound": "Nc1ccc(-c2cc(Cl)cc(Cl)c2)cc1-c1cc2ccccc2[nH]1",
    "unit-spec": "%",
    "inhibition": 2.84
  },
  {
    "compound": "CC1(C)NC(N)=NC(=N)N1OCCCOc1ccc(N)cc1",
    "unit-spec": "%",
    "inhibition": -1.98
  },
  {
    "compound": "O=C(CC1CCCC1)N(Cc1ccc(-c2ccc(CNC3Cc4ccccc4C3)cc2)cc1)CC1CCCCN1 (centres undefined)",
    "unit-spec": "%",
    "inhibition": 38.3
  },
  {
    "compound": "Clc1ccc(CNCCCCCCNCc2ccc(Cl)cc2)cc1",
    "unit-spec": "%",
    "inhibition": -1.01
  },
  {
    "compound": "O=C(/C=C/c1ccc(Cl)c(Cl)c1)NCCCCCN1CCC(CCNC(=O)c2snnc2-c2ccccc2)CC1",
    "unit-spec": "%",
    "inhibition": 0.24
  },
  {
    "compound": "CN1CCCN(Cc2cccc(-c3cccc(NS(=O)(=O)c4cccc5cccnc45)c3)c2)CC1",
    "unit-spec": "%",
    "inhibition": 10.4
  },
  {
    "compound": "COc1ccc(OC(C)CNC(=O)c2cc([N+](=O)[O-])ccc2-c2ccc(OC)cc2)cc1 (centres undefined)",
    "unit-spec": "%",
    "inhibition": 0.03
  },
  {
    "compound": "COc1ccc2c(N/N=C/c3ccccc3[N+](=O)[O-])ccnc2c1",
    "unit-spec": "%",
    "inhibition": 4.94
  },
  {
    "compound": "c1ccc(COc2ccc(Nc3ncnc4cnc(-c5ccc(CNc6cccnc6)o5)cc34)cc2)cc1",
    "unit-spec": "%",
    "inhibition": 3.94
  },
  {
    "compound": "CCCCCCNC(=N)c1ccc2[nH]c(-c3ccc(O)cc3)nc2c1",
    "unit-spec": "%",
    "inhibition": 3.58
  },
  {
    "compound": "CCCCCCOc1ccc(C(=O)NCCCC2CCCN(CCCCCNC(=O)C=Cc3ccc(Cl)c(Cl)c3)C2)cc1 (centres undefined)",
    "unit-spec": "%",
    "inhibition": -0.52
  },
  {
    "compound": "CCCCCCC(N)c1ccc(OCCCOc2ccc(C(N)CCCCCC)cc2)cc1 (centres undefined)",
    "unit-spec": "%",
    "inhibition": 107
  },
  {
    "compound": "O=C(c1ccccc1[N+](=O)[O-])N(Cc1ccccc1)c1ccccn1",
    "unit-spec": "%",
    "inhibition": 4.59
  },
  {
    "compound": "O=[N+]([O-])c1ccc(Nc2nc(N/N=C/c3cc(Cl)cc(Cl)c3O)nc(Nc3ccccc3)n2)cc1",
    "unit-spec": "%",
    "inhibition": 2.04
  },
  {
    "compound": "Cc1cc(OCCCN2CCN(CCN3CCOCC3)CC2)ccc1NC(=O)COc1ccc(Cl)cc1C(=O)c1cc(Cl)cc(C#N)c1",
    "unit-spec": "%",
    "inhibition": 2.6
  }
]

====

target: Hexose transporter 1 (Plasmodium falciparum); experiment: ST_JUDE_LEISH: Cytotoxicity at 2uM final concentration against transgenic Leishmania Mexicana promastigotes LmPfHT that are glucose transport deficient and complemented with the Plasmodium falciparum hexose transporter. Activity is measured by DNA content using SYBR green in vitro; assay type: functional

[
  {
    "compound": "Cc1ccc(NC(=O)c2cc(Br)cc(N3CCC(N(C)C)CC3)c2)cc1F",
    "inhibition [%]": 7.67
  },
  {
    "compound": "Cc1ccc(Nc2nc(C)cc(NC3CCCC3)n2)cc1",
    "inhibition [%]": 19.7
  },
  {
    "compound": "Cc1ccccc1C1CCN(c2ccc(C(=O)NC3CC3)cn2)CC1",
    "inhibition [%]": 1.26
  },
  {
    "compound": "O=C(Nc1ccc(Cl)cc1)c1ccc(CN2CCCN(Cc3cccc(Cl)c3)CC2)cc1",
    "inhibition [%]": -1.08
  },
  {
    "compound": "Cc1ncccc1C(=O)Nc1cccc(-c2cccc(-c3nc4cccc(C)c4[nH]3)c2)c1",
    "inhibition [%]": 1.44
  },
  {
    "compound": "O=C(Nc1cccc(CN2CCCN(Cc3ccc4c(c3)OCO4)CC2)c1)c1ccc2ccccc2c1",
    "inhibition [%]": 1.31
  },
  {
    "compound": "O=C(Cc1ccc(F)cc1)NC1CCN(c2ccnc3cc(Cl)ccc23)C1 (stereo not given)",
    "inhibition [%]": 1.78
  },
  {
    "compound": "CC(C)CNCc1cccc(-c2cccc(CNc3ccc4ncccc4c3)c2)c1",
    "inhibition [%]": 1.32
  },
  {
    "compound": "N#Cc1ccc(CN2CCC(Oc3ccc(NC(=O)c4ccco4)cc3Cl)CC2)cc1",
    "inhibition [%]": 1.94
  },
  {
    "compound": "O=C(/C=C/c1ccc(Cl)c(Cl)c1)NC1CCN(CCNC(=O)c2cccc(Cl)c2)CC1",
    "inhibition [%]": 3.11
  }
]

====

biological target: Solute carrier family 2, facilitated glucose transporter member 1 (Homo sapiens); assay: ST_JUDE_LEISH: Cytotoxicity at 2uM final concentration against transgenic Leishmania Mexicana promastigotes LmGLUT1 that are glucose transport deficient and complemented with the human glucose transporter GLUT1. Activity is measured by DNA content using SYBR green in vitro; format: functional
Recorded inhibition for the following compounds

[
  {
    "compound": "COc1cc(Nc2nccc(-c3c(-c4cccc(NC(=O)c5c(F)cccc5F)c4)nn4ccccc34)n2)cc(OC)c1OC",
    "inhibition": "20.8%"
  },
  {
    "compound": "CC1=C(C(=O)Nc2cc3cn[nH]c3cc2F)C(c2ccc(Cl)c(NS(C)(=O)=O)c2)CC(=O)N1 (centres undefined)",
    "inhibition": "-2.07%"
  },
  {
    "compound": "CC1CCCN(Cc2cc(Cl)cc(Cl)c2O)C1 (centres undefined)",
    "inhibition": "-1.08%"
  },
  {
    "compound": "CNC(=N)c1ccc(NC(=O)Nc2ccc(C(=N)NC)cc2)cc1",
    "inhibition": "4.64%"
  },
  {
    "compound": "COc1ccc(-c2ccc(NC(=O)c3ccc(C#N)cc3)cc2)cc1CN(C)CCO",
    "inhibition": "2.76%"
  },
  {
    "compound": "CCNc1cc(C(=O)N[C@@H](Cc2ccccc2)[C@H](O)CNC23CC4CC(CC(C4)C2)C3)cc(N2CCCCS2(=O)=O)c1",
    "inhibition": "3.41%"
  },
  {
    "compound": "CNCCNCc1cccc(-c2ccc(-c3nc4cccc(C)c4[nH]3)cc2)c1",
    "inhibition": "-1.62%"
  },
  {
    "compound": "Cc1ccc(F)cc1S(=O)(=O)Nc1ccc(CCN2CCC(N3CCCCC3)CC2)cc1",
    "inhibition": "0.5%"
  },
  {
    "compound": "CC[C@H](C)[C@@H](C(=O)N1CCOCC1)N1CC[C@H](NS(=O)(=O)CC(C)(C)c2ccc(Cl)cc2)C1=O",
    "inhibition": "0.22%"
  }
]

Data credit: ChEMBL document CHEMBL3433997
